Test system: bacterial inoculum
Assay: Neutralization of biocides with other nitrogen compounds
Assay type: cell-based
Details: 10 ppm gluteraldehyde + two moles nitrogen compound per mole; n-C16; day 9
Description: The different nitrogen-containing compounds evaluated include the following:
measure: microbial growth

Nc1ccccc1 : −
OCCNCCO : +
NCCO : +
CCNCC : +

---

Test system: bacterial inoculum
Assay: Neutralization of biocides with other nitrogen compounds
Format: cell-based
Details: 10 ppm gluteraldehyde + two moles nitrogen compound per mole; n-C16; day 6
Excerpt: The different nitrogen-containing compounds evaluated include the following:
measure: microbial growth

NCCO : +
OCCNCCO : +
Nc1ccccc1 : −
CCNCC : +

---

tested on: bacterial inoculum; experiment: Neutralization of biocides with other nitrogen compounds; assay type: cell-based; details: 10 ppm gluteraldehyde + two moles nitrogen compound per mole; n-C16; day 2
measure: microbial growth

CCNCC : −
OCCNCCO : +
NCCO : −
Nc1ccccc1 : −

---

tested on: bacterial inoculum; test: Neutralization of biocides with other nitrogen compounds; type: cell-based; conditions: 10 ppm gluteraldehyde + two moles nitrogen compound per mole; n-C16; day 7
measure: microbial growth

CCNCC : +
NCCO : +
Nc1ccccc1 : −
OCCNCCO : +

Where do the numbers come from? From patent US6800101B2.
